target: dopamine receptors (striatal membranes) (Rattus norvegicus, UniProt P61169); construct: striatal membranes prepared from Long-Evans hooded rats; from tissue; host or cells: corpus striatum of Long-Evans hooded rats (membrane homogenate); assay: [^3 H]Haloperidol binding assay; parameters: species or system rat (Long-Evans hooded rats); conditions: ^3 H-Haloperidol Binding IC50, rat striatal membranes, 0.6 nM [^3 H]-haloperidol, pH 7.6, 25° C., 40 minutes
Sequence (P61169 whole entry): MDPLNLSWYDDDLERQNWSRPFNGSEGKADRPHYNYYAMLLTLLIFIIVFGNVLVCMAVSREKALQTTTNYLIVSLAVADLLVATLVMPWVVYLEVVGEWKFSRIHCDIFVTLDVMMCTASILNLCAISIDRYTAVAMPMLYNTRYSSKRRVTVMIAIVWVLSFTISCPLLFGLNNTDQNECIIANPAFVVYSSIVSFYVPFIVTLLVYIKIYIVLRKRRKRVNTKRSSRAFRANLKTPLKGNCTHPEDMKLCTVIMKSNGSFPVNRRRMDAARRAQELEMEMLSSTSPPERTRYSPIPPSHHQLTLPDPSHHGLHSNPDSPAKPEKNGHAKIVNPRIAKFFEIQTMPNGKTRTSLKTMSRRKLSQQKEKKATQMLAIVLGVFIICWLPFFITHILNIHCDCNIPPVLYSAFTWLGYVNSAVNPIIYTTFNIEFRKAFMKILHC
# pIC50 per entry
Bear in mind: pIC50 is minus log10 of a mol/L concentration; give just that figure.

INSERT INTO results (structure_as_smiles, assay_endpoint, quantitative_readout) VALUES
  ('C1=C(c2ccccc2)CCN(CCCCOc2ccc3ncccc3c2)C1', 'pIC50', 7.77),
  ('c1ccc(N2CCN(CCCOc3ccc4[nH]cnc4c3)CC2)cc1', 'pIC50', 6.92);

Please report the measured pIC50 for C1=C(c2ccccc2)CCN(CCCCOc2ccc3[nH]ccc3c2)C1
8.00

Please report the measured pIC50 for C1=C(c2ccccc2)CCN(CCCOc2cccc3cnccc23)C1
7.48

Please report the measured pIC50 for C1=C(c2ccccc2)CCN(CCCOc2ccc3cc[nH]c3c2)C1
7.00

Please report the measured pIC50 for C1=C(c2ccccc2)CCN(CCCOc2cccc3[nH]ccc23)C1
7.40

Please report the measured pIC50 for C1=C(c2ccccc2)CCN(CCCCOc2cccc3[nH]ccc23)C1
7.30

###

target: dopamine receptors (striatal membranes) (Rattus norvegicus, UniProt P61169); construct: striatal membranes prepared from Long-Evans hooded rats; from tissue; host or cells: corpus striatum of Long-Evans hooded rats (membrane homogenate); assay: [^3 H]Haloperidol binding assay; set-up: species or system rat (Long-Evans hooded rats); settings: rat striatal membranes, 0.6 nM [^3 H]-haloperidol, pH 7.6, 25° C., 40 minutes; read-out: ^3 H-Haloperidol Binding IC50
Flag rule - IC50 less than 200 nM flags label 1; the remaining entries get label 0.

INSERT INTO measurements (structure_as_smiles, class) VALUES
  ('O=C1COc2cc(OCCCN3CCN(c4ccccc4)CC3)ccc21', 'label 1'),
  ('O=C1NCCc2c(OCCCN3CCN(c4ccccn4)CC3)cccc21', 'label 0'),
  ('c1ccc(N2CCN(CCCOc3ccc4cccnc4c3)CC2)cc1', 'label 1');

Consider the record given below.
I wonder whether c1cnc(N2CCN(CCCOc3cccc4cnccc34)CC2)nc1 has IC50 below 200 nM. Can you tell?
label 0

###

test system: spontaneous locomotion (Swiss-Webster male mice); test: Inhibition of locomotor activity-screen fall-off test; assay type: in vivo, mouse (Swiss-Webster male mice); details: Mus musculus, ip, 1 h, intraperitoneal, one hour prior to testing, locomotion accumulated for one hour
Flag rule - ED50 less than 3 mg/kg flags label 1; the remaining entries get label 0.

Examples with answers:
INSERT INTO assay_data (structure_as_smiles, class) VALUES
  ('c1cnc(N2CCN(CCCOc3ccc4cc[nH]c4c3)CC2)nc1', 'label 0'),
  ('O=C1NCCc2c(OCCCN3CCN(c4ccccn4)CC3)cccc21', 'label 0'),
  ('c1ccc(N2CCN(CCCOc3ccc4ccoc4c3)CC2)cc1', 'label 0'),
  ('O=C1Cc2cc(OCCCN3CCN(c4ccccc4)CC3)ccc2N1', 'label 1');

I wonder whether CC1(C)CC(=O)c2ccc(OCCCN3CC=C(c4ccccc4)CC3)cc2O1 has ED50 below 3 mg/kg. Can you tell?
label 0

###

molecular target: dopamine receptors (striatal membranes) (Rattus norvegicus); construct: striatal membranes prepared from Long-Evans hooded rats; from tissue; host or cells: corpus striatum of Long-Evans hooded rats (membrane homogenate); experiment: [^3 H]Haloperidol binding assay; parameters: species or system rat (Long-Evans hooded rats); conditions: rat striatal membranes, 0.6 nM [^3 H]-haloperidol, pH 7.6, 25° C., 40 minutes; read-out: ^3 H-Haloperidol Binding IC50
assay_endpoint: IC50 (nM)
Kindly provide the numeric value in nM only, without the unit symbol.

Please report the measured IC50 for c1cnc(N2CCN(CCCOc3ccc4cc[nH]c4c3)CC2)nc1
200

Please report the measured IC50 for c1ccc(N2CCN(CCCOc3ccc4cccnc4c3)CC2)nc1
230

Please report the measured IC50 for c1cnc(N2CCN(CCCOc3ccc4cccnc4c3)CC2)nc1
900

Please report the measured IC50 for O=C1COc2ccc(OCCCN3CCN(c4ncccn4)CC3)cc2N1
1000

Please report the measured IC50 for c1ccc(N2CCN(CCCOc3ccc4c(c3)OCCC4)CC2)cc1
70

Please report the measured IC50 for c1ccc(N2CCN(CCCOc3ccc4ncccc4c3)CC2)cc1
90

Please report the measured IC50 for c1cnc(N2CCN(CCCCOc3cccc4ncccc34)CC2)nc1 [Example 2S]
184

Please report the measured IC50 for c1cnc(N2CCN(CCCCOc3cccc4ncccc34)CC2)nc1 [Example 2N]
180

Please report the measured IC50 for c1ccc(N2CCN(CCCOc3cccc4cnccc34)CC2)nc1
645

###

tested on: spontaneous locomotion (Swiss-Webster male mice); test: Inhibition of locomotor activity-screen fall-off test; type: in vivo, mouse (Swiss-Webster male mice); settings: Mus musculus, ip, 1 h, intraperitoneal, one hour prior to testing, locomotion accumulated for one hour
Classes by ED50: LOW = under 0.9 mg/kg, MEDIUM = from 0.9 mg/kg up to 2 mg/kg, HIGH = 2 mg/kg and over

Examples with answers:
INSERT INTO assay_data (structure_as_smiles, measured_target, class) VALUES
  ('c1ccc(N2CCN(CCCOc3ccc4cccnc4c3)CC2)nc1', 'spontaneous locomotion (Swiss-Webster male mice)', 'LOW'),
  ('C1=C(c2ccccc2)CCN(CCCOc2cccc3[nH]ccc23)C1', 'spontaneous locomotion (Swiss-Webster male mice)', 'HIGH'),
  ('O=C1COc2cc(OCCCN3CC=C(c4ccccc4)CC3)ccc21', 'spontaneous locomotion (Swiss-Webster male mice)', 'HIGH'),
  ('c1ccc(N2CCN(CCCOc3ccc4ncccc4c3)CC2)cc1', 'spontaneous locomotion (Swiss-Webster male mice)', 'LOW');

Lab note: which band did O=C1COc2cc(OCCCN3CCN(c4ccccc4)CC3)ccc21 land in?
HIGH

Lab note: which band did c1ccc(N2CCN(CCCOc3cccc4cnccc34)CC2)nc1 land in?
HIGH

Lab note: which band did O=C1COc2ccc(OCCCN3CCN(c4ncccn4)CC3)cc2N1 land in?
MEDIUM

Lab note: which band did C1=C(c2ccccc2)CCN(CCCCOc2cccc3[nH]ccc23)C1 land in?
MEDIUM

Lab note: which band did c1ccc(N2CCN(CCCOc3ccc4cccnc4c3)CC2)cc1 land in?
LOW

###

molecular target: dopamine receptors (striatal membranes) (Rattus norvegicus); construct: striatal membranes prepared from Long-Evans hooded rats; from tissue; host or cells: corpus striatum of Long-Evans hooded rats (membrane homogenate); assay: [^3 H]Haloperidol binding assay; parameters: species or system rat (Long-Evans hooded rats); conditions: rat striatal membranes, 0.6 nM [^3 H]-haloperidol, pH 7.6, 25° C., 40 minutes; read-out: ^3 H-Haloperidol Binding IC50
assay_endpoint: pIC50
Bear in mind: pIC50 is minus log10 of a mol/L concentration; give just that figure.

Below, each entry is followed by its recorded pIC50 result.
INSERT INTO results (molecule, quantitative_readout) VALUES
  ('CC1(C)CC(=O)c2ccc(OCCCN3CCN(c4ccccc4)CC3)cc2O1 [Example 1]', 6.52),
  ('O=C1Cc2cc(OCCCN3CCN(c4ccccc4)CC3)ccc2N1 [Example 4]', 6.80),
  ('c1cnc(N2CCN(CCCCOc3ccc4ncccc4c3)CC2)nc1 [Example 2L]', 7.30);

Please report the measured pIC50 for c1ccc(N2CCN(CCCOc3ccc4ccoc4c3)CC2)cc1 [Example 5]
6.30

Please report the measured pIC50 for Oc1nccc2c(OCCCN3CCN(c4ccccn4)CC3)cccc12 [Example 2W]
6.19

Please report the measured pIC50 for c1ccc(N2CCN(CCCOc3cccc4cnccc34)CC2)cc1 [Example 2Q]
6.69

###

system: spontaneous locomotion (Swiss-Webster male mice); test: Inhibition of locomotor activity-screen fall-off test; assay type: in vivo, mouse (Swiss-Webster male mice); conditions: Mus musculus, ip, 1 h, intraperitoneal, one hour prior to testing, locomotion accumulated for one hour
assay_endpoint: ED50 (mg/kg)
Kindly provide the numeric value in mg/kg only, without the unit symbol.

INSERT INTO results (compound, measured_target, assay_endpoint, quantitative_readout) VALUES
  ('c1cnc(N2CCN(CCCCOc3cccc4ncccc34)CC2)nc1 [Example 2S]', 'spontaneous locomotion (Swiss-Webster male mice)', 'ED50', 7.7),
  ('c1ccc(N2CCN(CCCOc3ccc4[nH]cnc4c3)CC2)cc1 [Example 3]', 'spontaneous locomotion (Swiss-Webster male mice)', 'ED50', 4.9),
  ('c1ccc(N2CCN(CCCOc3ccc4c(c3)OCCC4)CC2)cc1 [Example 2D]', 'spontaneous locomotion (Swiss-Webster male mice)', 'ED50', 2.7),
  ('c1cnc(N2CCN(CCCOc3cccc4cnccc34)CC2)nc1 [Example 2R]', 'spontaneous locomotion (Swiss-Webster male mice)', 'ED50', 19.5),
  ('C1=C(c2ccccc2)CCN(CCCCOc2ccc3ncccc3c2)C1 [Example 2M]', 'spontaneous locomotion (Swiss-Webster male mice)', 'ED50', 1.1),
  ('c1cnc(N2CCN(CCCOc3ccc4cccnc4c3)CC2)nc1 [Example 2V]', 'spontaneous locomotion (Swiss-Webster male mice)', 'ED50', 1);

Please report the measured ED50 for C1=C(c2ccccc2)CCN(CCCCOc2ccc3[nH]ccc3c2)C1 [Example 2H]
0.5

Please report the measured ED50 for C1=C(c2ccccc2)CCN(CCCOc2ccc3cc[nH]c3c2)C1 [Example 2I]
2.8

Please report the measured ED50 for CC1(C)CC(=O)c2ccc(OCCCN3CCN(c4ccccc4)CC3)cc2O1 [Example 1]
5.9
